Assayed system: GST
Assay overview: SPOT array
Condition notes: median of control spots 978
// NB: equality with 1 counts as label 0; only SPOT intensity strictly below is label 1

{"columns": ["Binder", "Label"],
 "data": [
  ["LLIRWLILMPLVGSR", "label 0"],
  ["VFQFQMPTTPISTKM", "label 1"],
  ["KKIRLIFTYPSTVGR", "label 1"]
]}

Qu. Decide: SPOT intensity of NMLKKKPLKKPLKRF strictly below 1?
Ans. label 0

Qu. Decide: SPOT intensity of QNTPPLPPKPKSPHL strictly below 1?
Ans. label 0

Qu. Decide: SPOT intensity of LEFRAILFIPKRAPF strictly below 1?
Ans. label 1

Source of measurements: paper PMC2756588
